# Tested on: Enterococcus faecium
# assayInfo: Minimum inhibitory concentration against glycopeptide susceptible enterococci 568 Enterococcus faecium
# Format: functional
endpoint: MIC (µg/mL)
The answer is to be given in µg/mL; state only the numeric part.

INPUT: MIC lookup needed for CN[C@H](CC(C)C)C(=O)N[C@H]1C(=O)N[C@@H](CC(N)=O)C(=O)N[C@H]2C(=O)N[C@H]3C(=O)N[C@H](C(=O)N[C@H](C(=O)O)c4cc(O)cc(O)c4-c4cc3ccc4O)[C@H](O)c3ccc(c(Cl)c3)Oc3cc2cc(c3O)Oc2ccc(cc2Cl)[C@H]1O , thanks.
OUTPUT: 4

* * *

# Tested on: Moloney murine sarcoma virus
# assayInfo: Effective concentration against Moloney sarcoma virus
# Assay type: functional, organism-based, Viruses
The compounds listed here are annotated with their EC50.
The answer is to be given in µM; state only the numeric part.

{"columns": ["compound", "unitName", "EC50"],
 "data": [
  ["CN[C@H](CC(C)C)C(=O)N[C@H]1C(=O)N[C@@H](CC(N)=O)C(=O)N[C@H]2C(=O)N[C@H]3C(=O)N[C@H](C(=O)N[C@H](C(=O)NC4C5CC6CC(C5)CC4C6)c4cc(O)cc(O)c4-c4cc3ccc4O)[C@H](O)c3ccc(cc3)Oc3cc2cc(c3O)Oc2ccc(cc2)[C@H]1O (some centres not stated)", "µM", 14]
]}

# ---- query compound ----
INPUT: EC50 lookup needed for NC(=O)C[C@@H]1NC(=O)[C@H](N)[C@H](O)c2ccc(c(Cl)c2)Oc2cc3cc(c2O)Oc2ccc(cc2Cl)[C@@H](O)[C@@H]2NC(=O)[C@H](NC(=O)[C@@H]3NC1=O)c1ccc(O)c(c1)-c1c(O)cc(O)cc1[C@@H](C(=O)NCC13CC4CC(CC(C4)C1)C3)NC2=O , thanks.
OUTPUT: 27

* * *

The compounds listed here are annotated with their IC50.
# Test system: L1210
# assayInfo: Cytostatic activity against L1210 cell line
# Type: functional, cell-based
# conditionDetails: Mus musculus

{"columns": ["compound", "result"],
 "data": [
  ["NC(=O)C[C@@H]1NC(=O)[C@H](N)[C@H](O)c2ccc(c(Cl)c2)Oc2cc3cc(c2O)Oc2ccc(cc2)[C@@H](O)[C@@H]2NC(=O)[C@H](NC(=O)[C@@H]3NC1=O)c1ccc(O)c(c1)-c1c(O)cc(O)cc1[C@@H](C(=O)NC1C3CC4CC(C3)CC1C4)NC2=O (stereo partly drawn)", "> 250 µM"],
  ["NC(=O)C[C@@H]1NC(=O)[C@H](N)[C@H](O)c2ccc(c(Cl)c2)Oc2cc3cc(c2O)Oc2ccc(cc2)[C@@H](O)[C@@H]2NC(=O)[C@H](NC(=O)[C@@H]3NC1=O)c1ccc(O)c(c1)-c1c(O)cc(O)cc1[C@@H](C(=O)O)NC2=O", "> 250 µM"]
]}

# ---- query compound ----
INPUT: IC50 lookup needed for NCCCCCCCCCCNC(=O)[C@H]1NC(=O)[C@H]2NC(=O)[C@H](NC(=O)[C@@H]3NC(=O)[C@H](CC(N)=O)NC(=O)[C@H](N)[C@H](O)c4ccc(cc4)Oc4cc3cc(c4O)Oc3ccc(cc3)[C@H]2O)c2ccc(O)c(c2)-c2c(O)cc(O)cc21 , thanks.
OUTPUT: ≥ 250 µM

* * *

# System: Enterococcus faecium
# assayInfo: Minimum inhibitory concentration against glycopeptide susceptible enterococci 568 Enterococcus faecium
# Type: functional
endpoint: MIC

Reference set (2 entries):
{"columns": ["compound", "MIC"],
 "data": [
  ["NC(=O)C[C@@H]1NC(=O)[C@H](N)[C@H](O)c2ccc(c(Cl)c2)Oc2cc3cc(c2O)Oc2ccc(cc2)[C@@H](O)[C@@H]2NC(=O)[C@H](NC(=O)[C@@H]3NC1=O)c1ccc(O)c(c1)-c1c(O)cc(O)cc1[C@@H](C(=O)NCC13CC4CC(CC(C4)C1)C3)NC2=O", "> 64 µg/mL"],
  ["NC(=O)C[C@@H]1NC(=O)[C@H](N)[C@H](O)c2ccc(c(Cl)c2)Oc2cc3cc(c2O)Oc2ccc(cc2)[C@@H](O)[C@@H]2NC(=O)[C@H](NC(=O)[C@@H]3NC1=O)c1ccc(O)c(c1)-c1c(O)cc(O)cc1[C@@H](C(=O)NC1C3CC4CC(C3)CC1C4)NC2=O (stereo partly drawn)", "> 64 µg/mL"]
]}

# ---- query compound ----
INPUT: MIC lookup needed for NCCCCCCCCCCNC(=O)[C@H]1NC(=O)[C@H]2NC(=O)[C@H](NC(=O)[C@@H]3NC(=O)[C@H](CC(N)=O)NC(=O)[C@H](N)[C@H](O)c4ccc(cc4)Oc4cc3cc(c4O)Oc3ccc(cc3)[C@H]2O)c2ccc(O)c(c2)-c2c(O)cc(O)cc21 , thanks.
OUTPUT: > 64 µg/mL

* * *

The compounds listed here are annotated with their EC50.
# Test system: Moloney murine sarcoma virus
# assayInfo: Effective concentration against Moloney sarcoma virus
# Format: functional, organism-based, Viruses

Reference set (2 entries):
{"columns": ["smilesData", "endpoint", "result"],
 "data": [
  ["NCCCCCCCCCCNC(=O)[C@H]1NC(=O)[C@H]2NC(=O)[C@H](NC(=O)[C@@H]3NC(=O)[C@H](CC(N)=O)NC(=O)[C@H](N)[C@H](O)c4ccc(c(Cl)c4)Oc4cc3cc(c4O)Oc3ccc(cc3)[C@H]2O)c2ccc(O)c(c2)-c2c(O)cc(O)cc21", "EC50", "> 4 µM"],
  ["NC(=O)C[C@@H]1NC(=O)[C@H](N)[C@H](O)c2ccc(c(Cl)c2)Oc2cc3cc(c2O)Oc2ccc(cc2)[C@@H](O)[C@@H]2NC(=O)[C@H](NC(=O)[C@@H]3NC1=O)c1ccc(O)c(c1)-c1c(O)cc(O)cc1[C@@H](C(=O)O)NC2=O", "EC50", "> 100 µM"]
]}

# ---- query compound ----
INPUT: EC50 lookup needed for CN[C@H](CC(C)C)C(=O)N[C@H]1C(=O)N[C@@H](CC(N)=O)C(=O)N[C@H]2C(=O)N[C@H]3C(=O)N[C@H](C(=O)N[C@H](C(=O)NCCCCCCCCCCN)c4cc(O)cc(O)c4-c4cc3ccc4O)[C@H](O)c3ccc(cc3)Oc3cc2cc(c3O)Oc2ccc(cc2Cl)[C@H]1O , thanks.
OUTPUT: > 4 µM

* * *

# Test system: Staphylococcus epidermidis
# assayInfo: Minimum inhibitory concentration against 533 Staphylococcus epidermidis
# Type: functional
The compounds listed here are annotated with their MIC.

{"columns": ["compound", "endpoint", "result"],
 "data": [
  ["NCCCCCCCCCCNC(=O)[C@H]1NC(=O)[C@H]2NC(=O)[C@H](NC(=O)[C@@H]3NC(=O)[C@H](CC(N)=O)NC(=O)[C@H](N)[C@H](O)c4ccc(c(Cl)c4)Oc4cc3cc(c4O)Oc3ccc(cc3Cl)[C@H]2O)c2ccc(O)c(c2)-c2c(O)cc(O)cc21", "MIC", "> 32 µg/mL"]
]}

# ---- query compound ----
INPUT: MIC lookup needed for NC(=O)C[C@@H]1NC(=O)[C@H](N)[C@H](O)c2ccc(c(Cl)c2)Oc2cc3cc(c2O)Oc2ccc(cc2Cl)[C@@H](O)[C@@H]2NC(=O)[C@H](NC(=O)[C@@H]3NC1=O)c1ccc(O)c(c1)-c1c(O)cc(O)cc1[C@@H](C(=O)O)NC2=O , thanks.
OUTPUT: > 128 µg/mL

* * *

The compounds listed here are annotated with their EC50.
# Test system: Moloney murine sarcoma virus
# assayInfo: Effective concentration against Moloney sarcoma virus
# Format: functional, organism-based, Viruses

Reference set (4 entries):
{"columns": ["compound", "endpoint", "result"],
 "data": [
  ["CN[C@H](CC(C)C)C(=O)N[C@H]1C(=O)N[C@@H](CC(N)=O)C(=O)N[C@H]2C(=O)N[C@H]3C(=O)N[C@H](C(=O)N[C@H](C(=O)NC4C5CC6CC(C5)CC4C6)c4cc(O)cc(O)c4-c4cc3ccc4O)[C@H](O)c3ccc(cc3)Oc3cc2cc(c3O)Oc2ccc(cc2Cl)[C@H]1O (stereo not given in full)", "EC50", "> 4 µM"],
  ["CN[C@H](CC(C)C)C(=O)N[C@H]1C(=O)N[C@@H](CC(N)=O)C(=O)N[C@H]2C(=O)N[C@H]3C(=O)N[C@H](C(=O)N[C@H](C(=O)NCC45CC6CC(CC(C6)C4)C5)c4cc(O)cc(O)c4-c4cc3ccc4O)[C@H](O)c3ccc(cc3)Oc3cc2cc(c3O)Oc2ccc(cc2)[C@H]1O", "EC50", "11 µM"],
  ["CN[C@H](CC(C)C)C(=O)N[C@H]1C(=O)N[C@@H](CC(N)=O)C(=O)N[C@H]2C(=O)N[C@H]3C(=O)N[C@H](C(=O)N[C@H](C(=O)NCCCCCCCCCCN)c4cc(O)cc(O)c4-c4cc3ccc4O)[C@H](O)c3ccc(c(Cl)c3)Oc3cc2cc(c3O)Oc2ccc(cc2Cl)[C@H]1O", "EC50", "5 µM"],
  ["CN[C@H](CC(C)C)C(=O)N[C@H]1C(=O)N[C@@H](CC(N)=O)C(=O)N[C@H]2C(=O)N[C@H]3C(=O)N[C@H](C(=O)N[C@H](C(=O)NCCCCCCCCCCN)c4cc(O)cc(O)c4-c4cc3ccc4O)[C@H](O)c3ccc(cc3)Oc3cc2cc(c3O)Oc2ccc(cc2)[C@H]1O", "EC50", "14 µM"]
]}

# ---- query compound ----
INPUT: EC50 lookup needed for CN[C@H](CC(C)C)C(=O)N[C@H]1C(=O)N[C@@H](CC(N)=O)C(=O)N[C@H]2C(=O)N[C@H]3C(=O)N[C@H](C(=O)N[C@H](C(=O)O)c4cc(O)cc(O)c4-c4cc3ccc4O)[C@H](O)c3ccc(cc3)Oc3cc2cc(c3O)Oc2ccc(cc2)[C@H]1O , thanks.
OUTPUT: ≥ 100 µM
